Tested on: PPARg:RXRa 30nM:10nM, anti-RXR (NR concentration 30 nM, RXRa partner concentration 10 nM)
Assay: PBM binding z-score (relative to random genomic background probes); higher = stronger binding; sequences stand for … in GC…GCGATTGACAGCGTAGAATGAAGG
Each entry below carries its recorded PBM binding z-score.
Keep it simple and answer with nothing but the number.

TCTAGTTGGTCACGGAGGTCACACGCGACGGGTA = 3.3
CTCTGTAGGTTAAGGGGGTCATTCAGTTTGAAAG = 4.4
TTGAGTAGGTTACGGGGGCATTCAGGGATGAAGA = 4.81
ATATATAGGTTAGGGTCATTCAGAAAGTAGGGAA = 4.73
CCGCGTAGGTTACGAGGGGGCATTCAGTGCGAAT = 0.411
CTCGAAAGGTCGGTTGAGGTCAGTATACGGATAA = 0.448
CGTCAAAGTTCAAGGCAACGTAACAGAAAGCAGC = 1.54
CGTCAAAGTTCAACTAAGGTAACTTAAAGCACGC = 2.4

Looking for the measured PBM binding z-score of CTTAGTTGGTCAAGGTCACACACGCTATAGGTAC , can you help?
2.33

Looking for the measured PBM binding z-score of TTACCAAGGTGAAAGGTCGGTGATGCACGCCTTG , can you help?
6.6

Looking for the measured PBM binding z-score of CAAAATAGGTCAAGAGGTCAAAGTCCGCTTCCCG , can you help?
6.55

Looking for the measured PBM binding z-score of CGAACTAGGTCACCAGCACAGTGAAGAGGTTGGA , can you help?
4.62

Looking for the measured PBM binding z-score of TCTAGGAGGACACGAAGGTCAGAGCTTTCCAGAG , can you help?
2.49

Looking for the measured PBM binding z-score of CGTCAACGTTCAACTAAGGTAACGTAAAGCACGC , can you help?
-0.166

Looking for the measured PBM binding z-score of CGTCCAAGGTCACAGGAGGTCAGTGAAGACAGAT , can you help?
3.37

Looking for the measured PBM binding z-score of CCTACTGGGCCATGAAAGGTCATTGATTCAGTGA , can you help?
1.44

Looking for the measured PBM binding z-score of CGAACTAGGTCCCCAGGACAGTGAAGAGGTTGGA , can you help?
-0.453

Looking for the measured PBM binding z-score of ATACGTAGGTTAGGGTCATTCAGAAAGTAGGGAA , can you help?
1.32

Looking for the measured PBM binding z-score of CGAACGAGGTCAGAACAGGACAGTGAAGGATGAT , can you help?
1.32

Looking for the measured PBM binding z-score of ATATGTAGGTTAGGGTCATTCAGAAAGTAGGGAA , can you help?
4.41

Looking for the measured PBM binding z-score of TCGAGTAGGTTACGGGGGCAATCAGGGATGAAGA , can you help?
3.37

Looking for the measured PBM binding z-score of CCTACTGGGCCAAGGTCTTTGATCAGTCAAAGCA , can you help?
0.0343

Looking for the measured PBM binding z-score of CCTTACGGGTAACTCCAGGTTATAGCATCGGAGT , can you help?
-0.487

Looking for the measured PBM binding z-score of CCTACTGGGCCAAGGTCATTGAGCAGTCAAAGCA , can you help?
1.77

Looking for the measured PBM binding z-score of ACTAGTTGGTCAGCTGGGGTCACACACAATTCGG , can you help?
0.707

Looking for the measured PBM binding z-score of ACTAGTTGGTCAGCTGAGGTCACACACAATTCGG , can you help?
0.854
